molecular target: CYP 2D6 (Homo sapiens, UniProt P10635); assay: CYP450 assay (luminescence); assay type: in vitro ADME; conditions: CYP 2D6 enzyme with substrate, compound at 10 μM, read-out: inhibitory activity against human CYP 2D6
Sequence (P10635 whole entry): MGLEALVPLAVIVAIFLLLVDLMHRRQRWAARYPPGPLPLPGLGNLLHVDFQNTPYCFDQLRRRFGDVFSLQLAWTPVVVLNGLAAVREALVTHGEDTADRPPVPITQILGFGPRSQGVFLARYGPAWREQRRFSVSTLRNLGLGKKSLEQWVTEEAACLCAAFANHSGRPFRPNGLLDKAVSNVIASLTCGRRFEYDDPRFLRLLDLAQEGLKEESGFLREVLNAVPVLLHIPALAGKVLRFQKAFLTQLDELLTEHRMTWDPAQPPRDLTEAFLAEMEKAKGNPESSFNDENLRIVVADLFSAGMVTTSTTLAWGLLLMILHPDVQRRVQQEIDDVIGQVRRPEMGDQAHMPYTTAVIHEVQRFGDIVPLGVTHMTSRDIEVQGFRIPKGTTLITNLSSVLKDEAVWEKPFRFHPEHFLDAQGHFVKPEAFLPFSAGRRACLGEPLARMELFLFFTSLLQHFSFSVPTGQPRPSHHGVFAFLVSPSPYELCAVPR

# Compound, inhibition at 20 min, 10 µM / %
records = [
    ("Clc1cnc(Nc2ccc(OCCN3CCCC3)cc2)nc1NCc1ccco1 [Compound 5]", 14.4),
]

----------
target: SIK2 (Homo sapiens, UniProt Q9H0K1)
Sequence (Q9H0K1 whole entry): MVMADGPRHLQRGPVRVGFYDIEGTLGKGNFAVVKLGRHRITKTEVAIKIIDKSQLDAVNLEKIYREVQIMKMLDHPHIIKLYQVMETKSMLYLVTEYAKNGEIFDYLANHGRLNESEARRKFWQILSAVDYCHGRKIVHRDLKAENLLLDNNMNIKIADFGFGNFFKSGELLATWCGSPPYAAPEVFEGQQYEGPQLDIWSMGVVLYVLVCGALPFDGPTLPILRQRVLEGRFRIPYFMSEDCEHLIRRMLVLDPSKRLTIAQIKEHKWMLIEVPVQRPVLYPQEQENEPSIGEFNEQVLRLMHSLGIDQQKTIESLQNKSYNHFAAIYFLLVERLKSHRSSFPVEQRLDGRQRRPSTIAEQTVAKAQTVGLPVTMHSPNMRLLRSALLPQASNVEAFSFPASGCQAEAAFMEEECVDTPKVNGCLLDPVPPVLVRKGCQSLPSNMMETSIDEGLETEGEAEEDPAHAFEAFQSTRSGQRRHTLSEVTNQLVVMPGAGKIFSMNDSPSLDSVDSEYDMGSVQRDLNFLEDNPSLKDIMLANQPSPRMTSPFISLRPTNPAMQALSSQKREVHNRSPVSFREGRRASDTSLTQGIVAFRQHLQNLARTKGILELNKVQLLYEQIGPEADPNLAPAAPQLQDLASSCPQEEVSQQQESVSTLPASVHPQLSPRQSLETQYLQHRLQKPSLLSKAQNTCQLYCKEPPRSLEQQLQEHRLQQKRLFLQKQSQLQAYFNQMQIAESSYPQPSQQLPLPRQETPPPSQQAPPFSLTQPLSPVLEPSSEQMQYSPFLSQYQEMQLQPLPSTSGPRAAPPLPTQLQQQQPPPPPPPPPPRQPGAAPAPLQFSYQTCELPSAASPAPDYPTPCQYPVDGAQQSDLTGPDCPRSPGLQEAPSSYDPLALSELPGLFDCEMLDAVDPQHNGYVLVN

# Line notation, IC50 / nM
records = [
    ("Cc1cnc(Nc2ccc(OCCN3CCCC3)cc2)nc1NCc1ccco1", 105),
]

----------
Target: JAK3 (Homo sapiens, UniProt P52333)
Sequence (P52333 1-1124): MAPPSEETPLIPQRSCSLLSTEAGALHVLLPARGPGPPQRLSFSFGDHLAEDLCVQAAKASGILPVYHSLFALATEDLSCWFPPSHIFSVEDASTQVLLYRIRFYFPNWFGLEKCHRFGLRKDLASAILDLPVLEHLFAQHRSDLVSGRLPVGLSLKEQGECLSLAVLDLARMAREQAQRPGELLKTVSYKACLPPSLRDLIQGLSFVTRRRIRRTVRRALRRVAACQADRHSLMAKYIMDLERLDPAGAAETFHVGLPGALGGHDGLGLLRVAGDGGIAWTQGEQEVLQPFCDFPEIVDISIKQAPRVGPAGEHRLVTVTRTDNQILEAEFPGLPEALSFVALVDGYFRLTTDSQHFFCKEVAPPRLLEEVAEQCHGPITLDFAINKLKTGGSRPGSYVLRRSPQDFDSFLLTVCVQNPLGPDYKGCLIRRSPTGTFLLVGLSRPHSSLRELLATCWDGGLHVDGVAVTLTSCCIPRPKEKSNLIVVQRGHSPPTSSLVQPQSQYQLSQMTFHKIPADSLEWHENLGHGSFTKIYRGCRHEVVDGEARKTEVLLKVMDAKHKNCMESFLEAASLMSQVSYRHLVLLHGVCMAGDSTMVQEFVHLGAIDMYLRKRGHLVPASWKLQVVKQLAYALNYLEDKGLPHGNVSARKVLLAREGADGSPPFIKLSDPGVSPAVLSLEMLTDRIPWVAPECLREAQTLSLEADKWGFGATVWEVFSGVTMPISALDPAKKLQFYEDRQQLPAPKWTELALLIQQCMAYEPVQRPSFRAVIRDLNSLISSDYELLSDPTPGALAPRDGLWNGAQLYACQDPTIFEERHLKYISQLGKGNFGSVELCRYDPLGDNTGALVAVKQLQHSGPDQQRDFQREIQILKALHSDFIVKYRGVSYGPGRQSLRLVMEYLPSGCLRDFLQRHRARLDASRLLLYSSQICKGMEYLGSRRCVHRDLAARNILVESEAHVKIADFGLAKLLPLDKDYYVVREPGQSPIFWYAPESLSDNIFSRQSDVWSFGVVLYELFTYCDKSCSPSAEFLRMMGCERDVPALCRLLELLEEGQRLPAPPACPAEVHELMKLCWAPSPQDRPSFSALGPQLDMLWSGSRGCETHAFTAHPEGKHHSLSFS
pIC50: −log10 of the molar value.

# Line notation, pIC50
records = [
    ("Cc1cnc(Nc2ccc(OCCN3CCCC3)cc2)nc1NCc1ccco1", 6.68),
]
